experiment: Ratio of AUC/dose in brain to plasma of C57BL/6J mouse at 30 mg/kg, po administered as single dose by LC-MS/MS analysis; assay type: ADME, organism-based; settings: brain and plasma, read-out: BPR

Smiles repr: COc1ccc2c(c1)Cc1cccc(-c3cc(=O)cc(N4CCOCC4)o3)c1S2
Kp: 1.1

###

test: AUC/dose in C57BL/6J mouse brain at 3 mg/kg, iv administered as single dose by LC-MS/MS analysis; format: ADME, organism-based; conditions: in vivo

Smiles repr: C[C@H](CN1C[C@@H](C)O[C@@H](C)C1)Oc1ccc2c(c1)Cc1cccc(-c3cc(=O)cc(N4CCOCC4)o3)c1S2
AUC/dose [nM·kg·h/mg]: 110
--
Smiles repr: COc1ccc2c(c1)C1(CCOCC1)c1cccc(-c3cc(=O)cc(N4CCOCC4)o3)c1S2
AUC/dose [nM·kg·h/mg]: 700
--
Smiles repr: COC[C@@H](C)Oc1ccc2c(c1)Cc1cccc(-c3cc(=O)cc(N4CCOCC4)o3)c1S2
AUC/dose [nM·kg·h/mg]: 680

// data source = ChEMBL document CHEMBL4680114
